Origin of the recorded values: ChEMBL document CHEMBL1139366

// reported pEC50 for each item listed
# Test system: DU-145
# protocol: Cytotoxicity against human DU145 cells after 72 hrs by trypan blue exclusion assay
# Type: functional, cell-based
# condition_context: DU-145, 72 h
Notebook: values listed as pEC50 are -log10 of the concentration (mol/L).

Below are worked cases with known answers.
- compound: "CC[C@H]1OC(=O)[C@H](C)[C@@H](O)[C@H](C)[C@@H](O[C@@H]2O[C@H](C)C[C@H](N(C)Cc3ccc(-c4cn(CCCCCC(=O)NO)nn4)cc3)[C@H]2O)[C@](C)(O)C[C@@H](C)CN(C)[C@H](C)[C@@H](O)[C@]1(C)O"
  property_label: "pEC50"
  value_measured: 5.91
- compound: "CC[C@H]1OC(=O)[C@H](C)[C@@H](O[C@H]2C[C@@](C)(OC)[C@@H](O)[C@H](C)O2)[C@H](C)[C@@H](O[C@@H]2O[C@H](C)C[C@H](N(C)Cc3ccc(-c4cn(CCCCCCCC(=O)NO)nn4)cc3)[C@H]2O)[C@](C)(OC)C[C@@H](C)C(=O)[C@H](C)[C@@H](O)[C@]1(C)O"
  property_label: "pEC50"
  value_measured: 5.16
- compound: "CC[C@H]1OC(=O)[C@H](C)[C@@H](O[C@H]2C[C@@](C)(OC)[C@@H](O)[C@H](C)O2)[C@H](C)[C@@H](O[C@@H]2O[C@H](C)C[C@H](N(C)Cc3ccc(-c4cn(CCCCCCC(=O)NO)nn4)cc3)[C@H]2O)[C@](C)(OC)C[C@@H](C)C(=O)[C@H](C)[C@@H](O)[C@]1(C)O"
  property_label: "pEC50"
  value_measured: 5.95

# evaluate next
Summary for this molecule, `CC[C@H]1OC(=O)[C@H](C)[C@@H](O)[C@H](C)[C@@H](O[C@@H]2O[C@H](C)C[C@H](N(C)Cc3ccc(-c4cn(CCCCCCCC(=O)NO)nn4)cc3)[C@H]2O)[C@](C)(O)C[C@@H](C)CN(C)[C@H](C)[C@@H](O)[C@]1(C)O` : pEC50 is 5.25
